B1: C8orf76 (parent)
chain: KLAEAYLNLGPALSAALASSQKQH

Variants of: B1
Test Name: protein stability index of a GFP-peptide fusion (GPS, HEK-293T) (PSI 1-6); higher = more stable;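 further: lentivirally expressed fusions sorted by FACS into six bins by GFP to DsRed ratio, PSI derived from sequencing read proportions per bin multiplied by bin number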
Conditions: c terminus: a fixed tail appended
# protein stability index per entry
Property Measured: protein stability index

Sequence Content | Reading
KLAEAYLNLGPALSAALASSQWQH [K22W] | 4.77
KLAEAYLNLGPALSAKLASSQKQH [A16K] | 1.97
KLAEAYLNLGRALSAALASSQKQH [P11R] | 3.7
ILAEAYLNLGPALSAALASSQKQH [K1I] | 2.14
KLAEAYLNLGPALSEALASSQKQH [A15E] | 2.26
KLAEAYLNLGPALSAALCSSQKQH [A18C] | 1.6
KSAEAYLNLGPALSAALASSQKQH [L2S] | 3.07
KLAEAYLNLGPALSAALHSSQKQH [A18H] | 2.73
KLAEAYLNLGPVLSAALASSQKQH [A12V] | 3.4
KLIEAYLNLGPALSAALASSQKQH [A3I] | 2.07
KLAEAYLNLGPALSAATASSQKQH [L17T] | 1.95
KLAEAYLNLGPMLSAALASSQKQH [A12M] | 2.5
KLAEAYFNLGPALSAALASSQKQH [L7F] | 2.53
KLAEAYLNLGPALSAAQASSQKQH [L17Q] | 2.17
KAAEAYLNLGPALSAALASSQKQH [L2A] | 2.15
KLANAYLNLGPALSAALASSQKQH [E4N] | 2.35
KLAEAYLNLGPALSAALASSQTQH [K22T] | 4.43
KLAEAYLNLGPALSAALASSLKQH [Q21L] | 1.8
KLAEAYLNLGPAESAALASSQKQH [L13E] | 3.29
KLAEAYLNLGPALSAALASSQKTH [Q23T] | 2.83
KLAEAYLNLGKALSAALASSQKQH [P11K] | 1.94
KLAEAYLNLGPALSAALGSSQKQH [A18G] | 2.29
KRAEAYLNLGPALSAALASSQKQH [L2R] | 2.38
KLAEAYLNLGAALSAALASSQKQH [P11A] | 2.16
KLAEAYLNLGPALSAALASDQKQH [S20D] | 1.48
KLTEAYLNLGPALSAALASSQKQH [A3T] | 1.52
KLAEAYLNLGPALSAALASSQKCH [Q23C] | 2.22
KLAEAYLNLGPALSAALASSQKQL [H24L] | 2.44
KLAEAYLNFGPALSAALASSQKQH [L9F] | 2.56
KLAEAYLNLGPALSAALASSQKQC [H24C] | 3.67
KLAEAYLNLGPALSAALASSIKQH [Q21I] | 2.71
KMAEAYLNLGPALSAALASSQKQH [L2M] | 1.68
KLAEAYDNLGPALSAALASSQKQH [L7D] | 2.23
KLAEAYLNLGPALSAAYASSQKQH [L17Y] | 1.97
KLAEAYLWLGPALSAALASSQKQH [N8W] | 3.78
KLAEAYLNLGPALSAALASSQKSH [Q23S] | 2.91
KLAEANLNLGPALSAALASSQKQH [Y6N] | 3.58
KLAEAYLNLGPALQAALASSQKQH [S14Q] | 2.93
KLAEAYLNLGPALSAFLASSQKQH [A16F] | 3.07
KLAEAYLNLGPALSAALASSQKQK [H24K] | 1.76
KLAEAYLNLGPALSAALAASQKQH [S19A] | 4.1
KLAEAYLNLGPALSAALASSGKQH [Q21G] | 3.38
KLNEAYLNLGPALSAALASSQKQH [A3N] | 2.12
KLAEAILNLGPALSAALASSQKQH [Y6I] | 2.39
KLAEAYLNLGPNLSAALASSQKQH [A12N] | 1.68
KLAEAYLNLTPALSAALASSQKQH [G10T] | 2.12
KLAEAALNLGPALSAALASSQKQH [Y6A] | 1.54
KLAEAYLNLGPALSAALMSSQKQH [A18M] | 3.46
KLAEAYLNLGPALSAALASPQKQH [S20P] | 2.23
KLAEAYLNLGPALSAADASSQKQH [L17D] | 2.94
KLAGAYLNLGPALSAALASSQKQH [E4G] | 2.43
KLAEAYLMLGPALSAALASSQKQH [N8M] | 2.15
KLAEAYLNLGPALSAAEASSQKQH [L17E] | 2.26
KLAEAYLNLGPALSAALASSQKQI [H24I] | 2.4
KLAEAYLNLGPALSAALASLQKQH [S20L] | 3.21
KLAEAYGNLGPALSAALASSQKQH [L7G] | 1.67
KLAEAYLNLGPAVSAALASSQKQH [L13V] | 1.48
KLAEAYLNLGPALSAALASSQKMH [Q23M] | 2.85
KLAEAYLNLGPALSAALDSSQKQH [A18D] | 2.22
KLAEAYLNLNPALSAALASSQKQH [G10N] | 2.08
KLAIAYLNLGPALSAALASSQKQH [E4I] | 2.97
KLAEAYLNLIPALSAALASSQKQH [G10I] | 3.16
KLADAYLNLGPALSAALASSQKQH [E4D] | 2.2
KLAEAYLNLGPALSAALESSQKQH [A18E] | 1.95
KLAEAYLNLGPALSAAIASSQKQH [L17I] | 2.16
KLAEAYLNLGPALSAALASSQKQW [H24W] | 1.9
KLAEAYLNLGPALSAALASNQKQH [S20N] | 2.26
KLSEAYLNLGPALSAALASSQKQH [A3S] | 1.82
